Molecular target: T1, human GHRH receptor (human, UniProt Q02643 23-423)
T1 construct: whole, on cells; Assayed in BHK cell membrane preparations (25 ug protein per tube), not on intact cells; also called hGHRH-R; hGHRH receptor
T1 sequence (looked up): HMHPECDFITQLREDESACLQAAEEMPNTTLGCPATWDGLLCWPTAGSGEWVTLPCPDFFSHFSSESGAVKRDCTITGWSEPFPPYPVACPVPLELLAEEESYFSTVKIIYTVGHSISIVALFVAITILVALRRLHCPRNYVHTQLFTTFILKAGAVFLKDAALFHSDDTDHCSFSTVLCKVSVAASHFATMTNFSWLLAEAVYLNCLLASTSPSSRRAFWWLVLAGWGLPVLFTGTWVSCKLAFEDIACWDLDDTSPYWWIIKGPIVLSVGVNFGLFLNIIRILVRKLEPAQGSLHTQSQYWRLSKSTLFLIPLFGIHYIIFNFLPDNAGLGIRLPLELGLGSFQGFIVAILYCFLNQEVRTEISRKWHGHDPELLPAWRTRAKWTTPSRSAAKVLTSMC
Assay: competition with [125I-Tyr10]hGHRH(1-44)NH2, BHK cell membrane preparations expressing the human GHRH receptor
Square brackets hold non-standard residues; d marks the D form. Ends that are not written are not given here.

| Binder | IC50 (pM) |
| --- | --- |
| Y[dA]DAIFTNS[dY]RKVL[dA]QLSARKKLQDIMSR-NH2 (also: acetate salt, also called GHRH analogue #5; human GHRH analogue #5) [[D-Ala2, D-Tyr10, D-Ala15, Lys22] hGHRH(1-29)-NH2] | 1.2 |
